From: patent US10174016B2

Target: human P2X3 receptor (Homo sapiens (Human))
Assay: Intracellular calcium measurement (FLIPR, Fluo-4) of antagonist activity at human P2X3 receptors
Assay type: cell-based
Settings: human P2X3, FLIPR calcium assay, agonist α,β-Me-ATP; read-out: hP2X3 IC50
The threshold is 20 nM. Values of IC50 beneath it are tagged Fulfilled; values meeting or exceeding it are tagged Not fulfilled.

> print(dat)
                                    compound                             tested.system  category.label
 1  Cc1cnc(-c2cc(OC3COC3)cc(C(=O)N[C@H](C)c3ccc(C(F)F)nc3)c2)s1  human P2X3 receptor (Homo sapiens (Human))   Not fulfilled
 2  Cc1cnc(-c2cc(OC3COC3)cc(C(=O)NC(C)c3ncc(Cl)cc3F)c2)s1 (stereo not drawn)  human P2X3 receptor (Homo sapiens (Human))       Fulfilled
 3  Cc1cnc(-c2cc(OC3CCN(C)CC3)cc(C(=O)N[C@H](C)c3ccc(C(F)(F)F)nn3)c2)s1  human P2X3 receptor (Homo sapiens (Human))       Fulfilled
 4  Cc1cnc(-c2cc(OCC3(F)CN(C)C3)cc(C(=O)N[C@H](C)c3ccc(C(F)(F)F)nc3)c2)s1  human P2X3 receptor (Homo sapiens (Human))   Not fulfilled
 5  Cc1ccc([C@@H](C)NC(=O)c2cc(OC[C@H]3CCOC3)cc(-c3ncc(C(C)C)s3)c2)nn1  human P2X3 receptor (Homo sapiens (Human))   Not fulfilled
 6  Cc1ccc([C@@H](C)NC(=O)c2cc(OC[C@@H]3CCOC3)cc(-c3ncc(C)s3)c2)nn1  human P2X3 receptor (Homo sapiens (Human))       Fulfilled
 7  Cc1cnc(-c2cc(O[C@@H]3CCN(C)C3)cc(C(=O)N[C@H](C)c3cnc(C(F)(F)F)nc3)c2)s1  human P2X3 receptor (Homo sapiens (Human))   Not fulfilled
 8  Cc1cc(Oc2cc(C(=O)N[C@H](C)c3ccc(C)nn3)cc(-c3ncc(C)s3)c2)ccn1  human P2X3 receptor (Homo sapiens (Human))       Fulfilled
 9  Cc1cnc(-c2cc(OC3COC3)cc(C(=O)N[C@H](C)c3nnc(C)s3)c2)s1  human P2X3 receptor (Homo sapiens (Human))   Not fulfilled
10  Cc1cnc(-c2cc(OC[C@H]3CN(C)CCO3)cc(C(=O)NCc3cnc(C(F)(F)F)nc3)c2)s1  human P2X3 receptor (Homo sapiens (Human))       Fulfilled
11  Cc1cnc(-c2cc(OCC3CNC3)cc(C(=O)N[C@H](C)c3cnc(C(F)(F)F)nc3)c2)s1  human P2X3 receptor (Homo sapiens (Human))   Not fulfilled
12  Cc1cnc(-c2cc(OCC3(N(C)C)CC3)cc(C(=O)N[C@H](C)c3cnc(C(F)(F)F)nc3)c2)s1  human P2X3 receptor (Homo sapiens (Human))       Fulfilled
13  Cc1cnc(-c2cc(OC34CCN(CC3)CC4)cc(C(=O)N[C@H](C)c3cnc(C(F)(F)F)nc3)c2)s1  human P2X3 receptor (Homo sapiens (Human))   Not fulfilled
14  CCOC(=O)N1CCC(Oc2cc(C(=O)N[C@H](C)c3cnc(C(F)(F)F)nc3)cc(-c3ncc(C)s3)c2)CC1  human P2X3 receptor (Homo sapiens (Human))       Fulfilled
15  Cc1cnc(-c2cc(OCC3CCOCC3)cc(C(=O)NC(C)c3ncc(F)cc3Cl)c2)s1 (stereo not drawn)  human P2X3 receptor (Homo sapiens (Human))       Fulfilled

* * *

Target: human P2X3 receptor (Homo sapiens (Human), UniProt P56373)
Sequence (P56373 whole entry): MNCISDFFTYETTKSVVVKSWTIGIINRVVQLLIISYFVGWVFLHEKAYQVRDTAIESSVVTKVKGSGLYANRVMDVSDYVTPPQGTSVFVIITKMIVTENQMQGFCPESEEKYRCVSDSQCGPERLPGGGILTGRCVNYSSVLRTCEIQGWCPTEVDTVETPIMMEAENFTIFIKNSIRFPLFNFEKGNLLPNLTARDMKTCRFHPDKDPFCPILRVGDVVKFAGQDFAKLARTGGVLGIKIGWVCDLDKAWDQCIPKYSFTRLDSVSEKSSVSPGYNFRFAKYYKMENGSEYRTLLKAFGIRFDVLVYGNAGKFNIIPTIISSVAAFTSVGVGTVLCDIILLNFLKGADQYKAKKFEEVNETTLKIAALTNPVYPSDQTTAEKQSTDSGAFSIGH
Assay: Intracellular calcium measurement (FLIPR, Fluo-4) of antagonist activity at human P2X3 receptors
Format: cell-based
Conditions: read-out: hP2X3 IC50
RECORDED ENDPOINT: IC50 (nM)

> print(dat)
                                   compound                             tested.system  units.text  value.measured
1  CC(C)c1cnc(-c2cc(OC[C@H]3CCOC3)cc(C(=O)N[C@H](C)c3cnc(C(F)(F)F)nc3)c2)s1 [Example 281]  human P2X3 receptor (Homo sapiens (Human), UniProt P56373)          nM              26
2  Cc1cnc(-c2cc(O[C@H]3CN4CCC3CC4)cc(C(=O)N[C@H](C)c3ccc(C(F)(F)F)nc3)c2)s1 [Example 172]  human P2X3 receptor (Homo sapiens (Human), UniProt P56373)          nM              31
3  CC(C)c1cnc(-c2cc(OC[C@H]3CCCO3)cc(C(=O)N[C@H](C)c3cnc(C(F)(F)F)nc3)c2)s1 [Example 275]  human P2X3 receptor (Homo sapiens (Human), UniProt P56373)          nM              21
4  Cc1ccc(CNC(=O)c2cc(OC3CCN(CC(F)(F)F)CC3)cc(-c3ncc(C)s3)c2)nn1 [Example 314]  human P2X3 receptor (Homo sapiens (Human), UniProt P56373)          nM               8
5  CC(C)c1cnc(-c2cc(OC[C@@H]3CCCO3)cc(C(=O)N[C@H](C)c3cnc(C(F)(F)F)nc3)c2)s1 [Example 290]  human P2X3 receptor (Homo sapiens (Human), UniProt P56373)          nM              31
6  Cc1ccc(CNC(=O)c2cc(OC3CCN(CC(F)F)CC3)cc(-c3ncc(C)s3)c2)nn1 [Example 307]  human P2X3 receptor (Homo sapiens (Human), UniProt P56373)          nM              16

* * *

Catalogue of IC50 readings, one per entry.
Target: human P2X2/3 receptor (Homo sapiens (Human), UniProt P56373+Q9UBL9)
Sequence (P56373 whole entry): as above
Sequence (Q9UBL9 whole entry): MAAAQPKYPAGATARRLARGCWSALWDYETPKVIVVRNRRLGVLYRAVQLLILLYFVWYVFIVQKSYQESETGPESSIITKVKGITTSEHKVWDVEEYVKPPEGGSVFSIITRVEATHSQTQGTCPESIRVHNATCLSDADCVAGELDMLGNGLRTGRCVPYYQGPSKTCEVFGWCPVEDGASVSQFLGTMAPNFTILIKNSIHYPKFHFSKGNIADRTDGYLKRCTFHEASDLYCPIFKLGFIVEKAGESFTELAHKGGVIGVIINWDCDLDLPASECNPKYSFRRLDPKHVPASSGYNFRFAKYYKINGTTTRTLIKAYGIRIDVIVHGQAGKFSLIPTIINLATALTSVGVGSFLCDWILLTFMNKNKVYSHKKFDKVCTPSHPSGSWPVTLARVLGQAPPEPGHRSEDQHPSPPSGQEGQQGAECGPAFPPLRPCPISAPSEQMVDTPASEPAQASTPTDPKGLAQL
Experiment: Intracellular calcium measurement (FLIPR, Fluo-4) of antagonist activity at human P2X2/3 receptors
Type: cell-based
Details: human P2X2/3, FLIPR calcium assay, agonist α,β-Me-ATP; read-out: hP2X2/3 IC50
RECORDED ENDPOINT: IC50

> print(dat)
                                   compound  value.measured
1  Cc1cnc(-c2cc(OCC34CC(CO3)N(C(C)C)C4)cc(C(=O)N[C@H](C)c3cnc(C(F)(F)F)nc3)c2)s1 (stereo partly shown)         1560 nM
2  COC(C)(C)COc1cc(C(=O)N[C@H](C)c2cnc(C(F)(F)F)nc2)cc(-c2ncc(Cl)s2)c1         6430 nM
3  Cc1cnc(-c2cc(OC[C@H]3CNCCO3)cc(C(=O)N[C@H](C)c3cnc(C(F)(F)F)nc3)c2)s1         1520 nM
4  Cc1cnc(-c2cc(OC[C@H]3CCCO3)cc(C(=O)N[C@H](C)c3cnc(C(F)(F)F)nc3)c2)s1          118 nM
5  Cc1cnc([C@@H](C)NC(=O)c2cc(OC[C@H]3CCOC3)cc(-c3ncc(C)s3)c2)cn1         1620 nM
6  Cc1ccc(CNC(=O)c2cc(OCC3CC3)cc(-c3ncc(C)s3)c2)nn1          251 nM
7  Cc1ccc(CNC(=O)c2cc(OC3COC3)cc(-c3ncc(C)s3)c2)nn1         1510 nM

* * *

Molecular target: human P2X2/3 receptor (Homo sapiens (Human), UniProt P56373+Q9UBL9)
Assay: Intracellular calcium measurement (FLIPR, Fluo-4) of antagonist activity at human P2X2/3 receptors
Type: cell-based
Details: human P2X2/3, FLIPR calcium assay, agonist α,β-Me-ATP; read-out: hP2X2/3 IC50
pIC50: −log10 of the molar value.
RECORDED ENDPOINT: pIC50

> print(dat)
                                   molecule  recorded.endpoint  value.measured
1  Cc1cnc(-c2cc(OC[C@]3(F)CCCNC3)cc(C(=O)NC(C)c3cnc(C(F)(F)F)nc3)c2)s1 (single isomer, unassigned) [Example 355]              pIC50            6.02
2  CCCN1CC2(COc3cc(C(=O)N[C@H](C)c4cnc(C(F)(F)F)nc4)cc(-c4ncc(C)s4)c3)CC1CO2 (stereo partly drawn) [Example 408]              pIC50            5.77
3  Cc1cnc(-c2cc(OC[C@H]3CN(C)CCO3)cc(C(=O)N[C@H](C)c3cnc(C(F)(F)F)nc3)c2)s1 [Example 348]              pIC50            6.12

* * *

Target: human P2X2/3 receptor (Homo sapiens (Human), UniProt P56373+Q9UBL9)
Assay: Intracellular calcium measurement (FLIPR, Fluo-4) of antagonist activity at human P2X2/3 receptors
Assay type: cell-based
Conditions: human P2X2/3, FLIPR calcium assay, agonist α,β-Me-ATP; read-out: hP2X2/3 IC50
pIC50: −log10 of the molar value.
RECORDED ENDPOINT: pIC50

> print(dat)
                                   compound  recorded.endpoint  value.measured
1  Cc1cnc(-c2cc(OC3CCNCC3)cc(C(=O)N[C@H](C)c3ccc(C(F)(F)F)nn3)c2)s1 [Example 201]              pIC50            5.73
2  Cc1cnc(-c2cc(OC3COC3)cc(C(=O)N[C@H](C)c3nnc(C)s3)c2)s1 [Example 50]              pIC50            6.01
3  Cc1cnc(-c2cc(OC3CCNC(C(F)(F)F)C3)cc(C(=O)N[C@H](C)c3cnc(C(F)(F)F)nc3)c2)s1 (single isomer, unassigned) [Example 207]              pIC50            7.06
4  Cc1cnc(-c2cc(OC[C@H]3COCC(=O)N3C)cc(C(=O)N[C@H](C)c3cnc(C(F)(F)F)nc3)c2)s1 [Example 395]              pIC50            5.88
